Every entry's value here was drawn from PubChem BioAssay (NCI).

- Test system: OVCAR-4 ovarian
- EXPERIMENT NOTES: NCI tumour cell line growth inhibition, 48 h
READOUT: TGI

[[record]]
compound = "NNC(=S)N/N=C(\\C(=O)Nc1cccc(O)c1)C1C(=O)NC(=S)NC1=O"
val = "> 100 µM"

[[record]]
compound = "CC(=O)Nc1ccc(NCC(=O)Nn2cnc3ccc(S(=O)(=O)Nc4ccc(NC(C)=O)cc4)cc3c2=O)cc1"
val = "> 100 µM"

[[record]]
compound = "CC(=O)O[C@H]1C(=O)[C@@]2(C)C(C(OC(=O)c3ccccc3)[C@]3(O)C[C@H](OC(=O)C(OC(=O)CCCC(=O)NCCCN(C)C)C(NC(=O)c4ccccc4)c4ccccc4)C(C)=C1C3(C)C)C1(OC(C)=O)COC1C[C@@H]2O (some centres undefined)"
val = "> 87.9 µM"

[[record]]
compound = "Oc1ccc(O)c(CNc2ccc(C(O)C(F)(F)F)cc2)c1 (centres undefined)"
val = "30.3 µM"

[[record]]
compound = "CN(CCN1C(=O)c2cc([N+](=O)[O-])cc3cc([N+](=O)[O-])cc(c23)C1=O)CCN1C(=O)c2cc([N+](=O)[O-])cc3cc([N+](=O)[O-])cc(c23)C1=O"
val = "> 100 µM"


input: Answer with the recorded TGI for the compound listed here: COC(=O)C(N)CCCC(N)C(=O)NC(C)C(=O)NC(CCC(=O)NCCNCCNc1c2ccccc2nc2cccc([N+](=O)[O-])c12)C(N)=O (centres undefined)
output: 8.05 µM

input: Answer with the recorded TGI for the compound listed here: O=C(Nc1ccc2[nH]nc(-c3ccncc3)c2c1)[C@@H]1CCN(CC(=O)N2CCN(c3ccc(-c4ncccn4)cc3)CC2)C1
output: > 100 µM

input: Answer with the recorded TGI for the compound listed here: CNNC1=NS(=O)(=O)c2cc(C#N)c(Cl)cc2S1
output: > 10 µM
